# credit: patent US20230304010A1

System: ACE2 : SARS-CoV-2 Spike Beta (B1.351/South Africa) variant
Type: binding
Reported conditions: read-out: IC50, Beta (B1312)
Ends that are not written are not given here.
Parameter: pIC50
Scale for pIC50: -log10 of concentration given in mol/L; no unit attached.

Ask: Returns the measured pIC50 for the input substance. Input: Ac-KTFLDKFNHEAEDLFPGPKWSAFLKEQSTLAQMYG [Seq28]
Result: 7.50

---

System: ACE2 : SARS-CoV-2 Spike Gamma (P1/Brazil) variant
Type: binding
Ends that are not written are not given here.
Parameter: IC50 (nM)
Write it as a number; the unit nM goes unstated.

Ask: Entry Ac-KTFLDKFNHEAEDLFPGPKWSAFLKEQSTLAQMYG [Seq28] has what IC50?
Result: 41.7
